Experiment: Pharmacokinetics study of KDG-0271 in male CD1 mice (Example 4)
Assay type: in vivo
Conditions: mouse, plasma, 30 mg/kg IP, 8 h, read-out: Concentration IP_Mean
test_readout: concentration at 8 h (ng/mL)
Express it in ng/mL; write the number only.

Any idea what concentration at 8 h was measured for Cc1n[nH]c2c1C(c1cc(C#CC3CN(C(=O)OC(C)(C)C)C3)cc(CO)c1)(C(C)C)C(C#N)=C(N)O2 (stereo not shown) ?
61.4

* * *

Assay: Pharmacokinetics study of KDG-0271 in male CD1 mice (Example 3)
Type: in vivo
Settings: mouse; male CD1 mice, plasma, 200 mg/kg IP, 2 h; read-out: Concentration IP_Mean
test_readout: concentration at 2 h (ng/mL)
Express it in ng/mL; write the number only.

Any idea what concentration at 2 h was measured for Cc1n[nH]c2c1C(c1cc(C#CC3CN(C(=O)OC(C)(C)C)C3)cc(CO)c1)(C(C)C)C(C#N)=C(N)O2 (stereo not shown) [KDG-0271] ?
1160

* * *

Assay: Pharmacokinetics study of KDG-0271 in male CD1 mice (Example 4)
Format: in vivo
Conditions: mouse, plasma, 30 mg/kg IP
test_readout: half-life (h)
Express it in h; write the number only.

Any idea what half-life was measured for Cc1n[nH]c2c1C(c1cc(C#CC3CN(C(=O)OC(C)(C)C)C3)cc(CO)c1)(C(C)C)C(C#N)=C(N)O2 (stereo not shown) [KDG-0271] ?
1.6

* * *

Assay: Pharmacokinetics study of KDG-0388 in male CD1 mice (Example 2)
Assay type: in vivo
Conditions: mouse; male CD1 mice, plasma, 200 mg/kg IP, 8 h; read-out: Concentration IP_Mean
Experimental: A standard PK study of KDG-0388 was performed in male CD1 mice dosed with a single oral or intraperitoneal dose of KDG-0388. The parameters of the PK study are described in Table 10. […] For IV and IP, after collection, plasma samples from the same time point were pooled, and the pooled samples were analyzed by LC/MS/MS. […] BLOQ=Below quantifiable limit of 1 ng/mL. […] The PO bioavailability (F %) was calculated as following: […] The IP bioavailability (F %) was calculated as following: […]
test_readout: concentration at 8 h (ng/mL)
Express it in ng/mL; write the number only.

Any idea what concentration at 8 h was measured for Cc1n[nH]c2c1C(c1cc(C#C[C@H]3C[C@@H](NC(=O)OC(C)(C)C)C3)cc(CO)c1)(C(C)C)C(C#N)=C(N)O2 (stereo partly shown) ?
633

* * *

Test: Pharmacokinetics study of KDG-0271 in male CD1 mice (Example 4)
Format: in vivo
Conditions: mouse, plasma, 30 mg/kg IP
test_readout: AUC(0-inf) (µg·h/mL)
Express it in µg·h/mL; write the number only.

Any idea what AUC(0-inf) was measured for Cc1n[nH]c2c1C(c1cc(C#CC3CN(C(=O)OC(C)(C)C)C3)cc(CO)c1)(C(C)C)C(C#N)=C(N)O2 (stereo not shown) ?
5.36

* * *

Test: Pharmacokinetics study of KDG-0320-0A in male CD1 mice (Example 1)
Format: in vivo
Settings: mouse, plasma, 30 mg/kg IP
Counter-ions that a name gives are not always drawn.
test_readout: AUC(0-inf)
State the value with its unit after it.

Any idea what AUC(0-inf) was measured for Cc1n[nH]c2c1C(c1cc(C#C[C@H]3CC[C@H](NC(=O)OC(C)(C)C)CC3)cc(CO)c1)(C(C)C)C(C#N)=C(N)O2 (stereo partly shown) [KDG-0320, hydrochloride] ?
7840 ng·h/mL
